B1: glmS ribozyme (parent)
chain: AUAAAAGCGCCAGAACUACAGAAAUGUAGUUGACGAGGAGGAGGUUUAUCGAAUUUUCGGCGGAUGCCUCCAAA

- Variants of: B1
- Assay info: kcat; higher = faster cleavage; RNA array
- Condition label: with glucosamine-6-phosphate
Fewer inactive variants are shown than the library holds.
Threshold rule: kcat greater than or equal to 0.0002 s⁻¹ is criterion met; below that, criterion not met.

Solved cases (5 shown):
INPUT: Threshold query (kcat >= 0.0002 s⁻¹) on G51A G59U
OUTPUT: criterion not met

INPUT: Threshold query (kcat >= 0.0002 s⁻¹) on C67U C71U
OUTPUT: criterion met

INPUT: Threshold query (kcat >= 0.0002 s⁻¹) on U56G C71G
OUTPUT: criterion met

INPUT: Threshold query (kcat >= 0.0002 s⁻¹) on C50A U54G
OUTPUT: criterion not met

INPUT: Threshold query (kcat >= 0.0002 s⁻¹) on A15C U46C
OUTPUT: criterion met

More entries:
INPUT: Threshold query (kcat >= 0.0002 s⁻¹) on G35U C50A
OUTPUT: criterion not met

INPUT: Threshold query (kcat >= 0.0002 s⁻¹) on G9C G37C
OUTPUT: criterion not met

INPUT: Threshold query (kcat >= 0.0002 s⁻¹) on G29C U56G
OUTPUT: criterion met
